- Test system: CEM cells HIV-1 protection, formazan growth assay
- Test summary: NCI AIDS Antiviral Assay
pEC50: −log10 of the molar value.
pEC50 reference

Compound | pEC50
CCc1cccc(C(C)(C)C)c1NC(=S)N/C=C(\c1ccccc1)S(=O)Cc1ccccc1 (centres undefined) | 3.74
O=C1/C(=C/c2ccc(Cl)cc2)Cc2ccccc21 | < 5.25
CC1=N/C(=C/c2ccc3c(c2)OCO3)C(=O)O1 | < 3.81
ClCCNCCNCCCl.O=c1cccccc1[O-].O=c1cccccc1[O-].[Co+3].[O-][Cl+3]([O-])([O-])[O-] | < 3.70
COC(=O)[C@@]12C(=O)C(C)C(=O)[C@]1(C)C(C)=C[C@H]1[C@]3(C=O)CC[C@H](OC(C)=O)C(C)(C)[C@H]3CC[C@@]12C (some centres undefined) | < 3.70
NS(=O)(=O)c1ccc(NC(=O)/C=C\C(=O)O)cc1 | < 3.70
CCCSc1nc(-c2ccc(OC)cc2)c(C#N)c(=O)n1C1OC(COC(C)=O)C(OC(C)=O)C(OC(C)=O)C1OC(C)=O (centres undefined) | < 3.70
CN(C)CCN1C(=O)c2cccc3cc([N+](=O)[O-])cc(c23)C1=O | < 3.70
CC(=Nc1ccccc1S)c1c(O)ccc2c(C)cc(=O)oc12 | < 4.94

* * *

- System: CEM cells HIV-1 protection, formazan growth assay
- Test summary: NCI AIDS Antiviral Assay

Compound | EC50
COc1ccc(CC2C(=O)NC(C)C(=O)N(C)C3Cc4ccc(cc4)Oc4cc(ccc4O)CC(C(=O)NC(C)C(=O)NC(C)C(=O)N2C)N(C)C3=O)cc1 (stereo not given) | > 0.2 µM
CN(C)CCC(=O)C(=Cc1ccc(O)cc1)C(=O)CCN(C)C | > 646 µM
O=c1c(SCc2ccccc2)c(SCc2ccccc2)cnn1-c1ccccc1 | > 24 µM
CCCCCC(C(O)C#N)C(O)(C(F)(F)F)C(F)(F)F (stereo not given) | > 200 µM
CC1(c2ccc(Cl)cc2)C2C(=O)NC(=O)C1C(=O)NC2=O (stereo not given) | > 813 µM
O=c1[nH]nc(Nc2ccc(Cl)cc2)c2nnn(-c3ccc([N+](=O)[O-])cc3)c12 | > 200 µM
Cc1cc2c(cc1C)NC(=O)CC(=O)N2 | > 200 µM
Cc1ccc(-n2cnc(C(=N)C#N)c2N)cc1 | > 200 µM
NC(N)=N/N=C/c1oc(-c2ccc(S(=O)(=O)O)o2)c(-c2ccc(S(=O)(=O)O)o2)c1[N+](=O)[O-] | > 513 µM
Cc1nc(C)c(C(=O)NNC(=O)c2ccccc2)cc1C(=O)NNC(=O)c1ccccc1 | > 200 µM

* * *

log10 IC50 reference
- Tested on: CEM cells HIV-1 protection, formazan growth assay
- Test summary: NCI AIDS Antiviral Assay
- Condition context: measured here: growth of uninfected CEM cells
Parameter: log10 IC50 (log10 of the value in µM)

Compound | log10 IC50
C#CCOC(=O)c1ccc(OC(C)=O)cc1 | 2.28
O=C(O)C(F)(F)C(F)(F)C(F)(F)C(F)(F)C(F)(F)C(F)(F)C(F)(F)C(F)(F)F | 2.02
C/C(=C/OS(=O)(=O)C(F)(F)F)c1ccccc1 | 1.76
CC(C)CCCC(C)C1CCC2C3CCC(=O)C(C)(CCCNCCO)C3CCC12C (stereo not drawn) | 0.46
BrCCC[P+](c1ccccc1)(c1ccccc1)c1ccccc1 | -0.04
Cc1c(Cl)cccc1NC(=O)CN(CC(C)C)CC(C)C | 1.52
O=C(NC(N1CCN(c2cc3c(cc2F)c(=O)c(C(=O)O)cn3C2CC2)CC1)(C(F)(F)F)C(F)(F)F)c1ccccc1 | 2.02
O=C1c2cc(-c3ccccc3)cnc2S(=O)(=O)N1c1ccc(Br)cc1 | 1.22
CC(C)c1nc2cc(C(F)(F)F)ccc2[nH]c1=O | 2.08
O=C1OC(CN2CCN(c3ccccc3)CC2)CN1C(=S)Nc1ccccc1 (stereo not drawn) | 2.06
CC(C)(C)OC(=O)NCCNC(=O)CN(CC(=O)O)C1CCCCC1N(CC(=O)O)CC(=O)O (stereo not drawn) | 2.23
C=CCCCN1C(=O)C2C3c4ccccc4C(C=O)(c4ccccc43)C2C1=O (stereo not drawn) | 0.86
CCOC(=O)/C(Cl)=C(\C)Nc1nc2c(ccc3ccccc32)s1 | 1.69
OC(Cc1ccc2ccccc2c1)CN1CCC(c2ccccc2)CC1 (stereo not drawn) | 1.57
O=C(Nc1ccccc1)OCCN=c1c2ccccc2ccc2ccccc12 | 1.39
N#Cc1c(NC(=S)NC(=O)c2ccccc2)nc2c(c1-c1ccccc1)CCC2 | 1.97
CCCCCCOP(=O)(OCCCCCC)C(NC(=O)OCC)(C(F)(F)F)C(F)(F)F | 1.34
C[N+]1(CCCCN2c3ccccc3Sc3cc(N=[N+]=[N-])ccc32)CCN(C(=O)CCNC(=O)Cc2ccc(C(=O)c3ccccc3)cc2)CC1 | 1.19
CC(C)(Oc1ccc(Cl)cc1)C(=O)N(C(=O)N1CCCCC1)c1ccccc1 | 1.12
COc1ccc(/C=C2\NC(=S)N(CN3CCCCC3)C2=O)cc1 | 1.49
Cc1cccc(N2C(=O)C3c4[nH]c5ccc(C)cc5c4C4CCC(C(C)(C)C)CC4C3C2=O)c1 (stereo not drawn) | 0.93
C/C(CC(=O)Nc1ccccc1)=N\NC(N)=S | 2.23
Fc1ccc(NC2=NCCN=C(Nc3ccc(F)cc3)SS2)cc1 | 1.39
N#C/C(=C\c1cc(Cl)cc(Cl)c1O)c1ccc([N+](=O)[O-])cc1 | 1.15
O=C1NC(=O)[C@@]2(CC[C@@H](O)C2)c2ccncc21 | 2.65

Origin of measurements: PubChem BioAssay AID179
